Each record here notes measured shrunken log2 fold change.
- System: Escherichia coli TOP10;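 note: peptides expressed intracellularly from a pBAD plasmid library in pooled LB shake-flask culture, induced with 0.3% L-arabinose, DNA abundance read by NGS, three biological replicates, DESeq2 with apeglm shrinkage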
- protocol: shrunken log2 fold change of peptide-encoding DNA abundance (4.5 h post-induction vs induction); higher = less antimicrobial activity (less host growth inhibition)
- study_conditions: time post-induction: 4.5 h; library: site-saturation at positions 5, 18, 19, 20
test_readout: shrunken log2 fold change

{"biosequence": "RRIRRRPPRLPRPRPRPCDAPRP", "test_target": "Escherichia coli TOP10", "test_readout": "shrunken log2 fold change", "measured_number": 0.221}
{"biosequence": "RRIRWRPPRLPRPRPRPLICPRP", "test_target": "Escherichia coli TOP10", "test_readout": "shrunken log2 fold change", "measured_number": 0.803}
{"biosequence": "RRIRERPPRLPRPRPRPRGDPRP", "test_target": "Escherichia coli TOP10", "test_readout": "shrunken log2 fold change", "measured_number": 0.0639}
{"biosequence": "RRIRFRPPRLPRPRPRPDQWPRP", "test_target": "Escherichia coli TOP10", "test_readout": "shrunken log2 fold change", "measured_number": -0.125}
{"biosequence": "RRIRTRPPRLPRPRPRPTSEPRP", "test_target": "Escherichia coli TOP10", "test_readout": "shrunken log2 fold change", "measured_number": -0.126}
{"biosequence": "RRIRVRPPRLPRPRPRPSFEPRP", "test_target": "Escherichia coli TOP10", "test_readout": "shrunken log2 fold change", "measured_number": -0.214}
{"biosequence": "RRIRYRPPRLPRPRPRPKEIPRP", "test_target": "Escherichia coli TOP10", "test_readout": "shrunken log2 fold change", "measured_number": -0.0434}
{"biosequence": "RRIRRRPPRLPRPRPRPWWPPRP", "test_target": "Escherichia coli TOP10", "test_readout": "shrunken log2 fold change", "measured_number": 0.0939}
{"biosequence": "RRIRFRPPRLPRPRPRPWHGPRP", "test_target": "Escherichia coli TOP10", "test_readout": "shrunken log2 fold change", "measured_number": -0.151}
{"biosequence": "RRIRPRPPRLPRPRPRPQRLPRP", "test_target": "Escherichia coli TOP10", "test_readout": "shrunken log2 fold change", "measured_number": 0.0191}
{"biosequence": "RRIRKRPPRLPRPRPRPGSCPRP", "test_target": "Escherichia coli TOP10", "test_readout": "shrunken log2 fold change", "measured_number": 0.346}
{"biosequence": "RRIRDRPPRLPRPRPRPPHCPRP", "test_target": "Escherichia coli TOP10", "test_readout": "shrunken log2 fold change", "measured_number": 0.0674}
{"biosequence": "RRIRRRPPRLPRPRPRPPGGPRP", "test_target": "Escherichia coli TOP10", "test_readout": "shrunken log2 fold change", "measured_number": 0.348}
{"biosequence": "RRIRGRPPRLPRPRPRPKEWPRP", "test_target": "Escherichia coli TOP10", "test_readout": "shrunken log2 fold change", "measured_number": -0.00523}
{"biosequence": "RRIRPRPPRLPRPRPRPVSFPRP", "test_target": "Escherichia coli TOP10", "test_readout": "shrunken log2 fold change", "measured_number": 0.0766}
{"biosequence": "RRIRNRPPRLPRPRPRPVNAPRP", "test_target": "Escherichia coli TOP10", "test_readout": "shrunken log2 fold change", "measured_number": 0.16}
{"biosequence": "RRIRKRPPRLPRPRPRPSGEPRP", "test_target": "Escherichia coli TOP10", "test_readout": "shrunken log2 fold change", "measured_number": 0.0144}
{"biosequence": "RRIRCRPPRLPRPRPRPEYIPRP", "test_target": "Escherichia coli TOP10", "test_readout": "shrunken log2 fold change", "measured_number": -0.144}
{"biosequence": "RRIRERPPRLPRPRPRPILFPRP", "test_target": "Escherichia coli TOP10", "test_readout": "shrunken log2 fold change", "measured_number": -0.57}
{"biosequence": "RRIRMRPPRLPRPRPRPNKSPRP", "test_target": "Escherichia coli TOP10", "test_readout": "shrunken log2 fold change", "measured_number": 0.0117}
{"biosequence": "RRIRPRPPRLPRPRPRPHYTPRP", "test_target": "Escherichia coli TOP10", "test_readout": "shrunken log2 fold change", "measured_number": -0.516}
{"biosequence": "RRIRARPPRLPRPRPRPVAPPRP", "test_target": "Escherichia coli TOP10", "test_readout": "shrunken log2 fold change", "measured_number": 0.612}
{"biosequence": "RRIRQRPPRLPRPRPRPKPKPRP", "test_target": "Escherichia coli TOP10", "test_readout": "shrunken log2 fold change", "measured_number": 0.278}
{"biosequence": "RRIRYRPPRLPRPRPRPNFSPRP", "test_target": "Escherichia coli TOP10", "test_readout": "shrunken log2 fold change", "measured_number": -0.401}
{"biosequence": "RRIRRRPPRLPRPRPRPAQWPRP", "test_target": "Escherichia coli TOP10", "test_readout": "shrunken log2 fold change", "measured_number": 0.912}
{"biosequence": "RRIRTRPPRLPRPRPRPNRLPRP", "test_target": "Escherichia coli TOP10", "test_readout": "shrunken log2 fold change", "measured_number": 0.0657}
{"biosequence": "RRIRVRPPRLPRPRPRPVMLPRP", "test_target": "Escherichia coli TOP10", "test_readout": "shrunken log2 fold change", "measured_number": -0.0602}
{"biosequence": "RRIRPRPPRLPRPRPRPLAHPRP", "test_target": "Escherichia coli TOP10", "test_readout": "shrunken log2 fold change", "measured_number": 0.183}
{"biosequence": "RRIRCRPPRLPRPRPRPAGQPRP", "test_target": "Escherichia coli TOP10", "test_readout": "shrunken log2 fold change", "measured_number": -0.109}

Ref: the supplement of paper PMC9112550
